Measured values drawn from patent US8940331B2 for this set.

- Type: cell-based
- Setup Conditions: MTS assay, cells treated 24 h; concentration causing 50% cell death; read-out: LC50 Lncap (prostate cancer)
Square brackets hold non-standard residues; d marks the D form. Peptide text beside a SMILES is read from it. Nspe = C[C@H](NCC(=O)O)c1ccccc1; Nphe = O=C(O)CNCc1ccccc1; Nlys = NCCCCNCC(=O)O
Measured Property: CC50 (µM)
# unit: µM | format: bare number

{"columns": ["Compound", "CC50 [µM]"],
 "data": [
  ["C[C@@H](c1ccccc1)N(CC(N)=O)C(=O)CN(CCCCN)C(=O)CN(C(=O)CN(C(=O)CN(CCCCN)C(=O)CN(C(=O)CN(C(=O)CN(CCCCN)C(=O)CN(C(=O)CN(C(=O)CNCCCCN)[C@@H](C)c1ccccc1)[C@@H](C)c1ccccc1)[C@@H](C)c1ccccc1)[C@@H](C)c1ccccc1)[C@@H](C)c1ccccc1)[C@@H](C)c1ccccc1 [Peptoid 111mer, H-(NLys-Nspe-Nspe)3-NLys-Nspe-NH2] (H-[Nlys][Nspe][Nspe][Nlys][Nspe][Nspe][Nlys][Nspe][Nspe][Nlys][Nspe]-NH2)", 8],
  ["C[C@@H](c1ccccc1)N(CC(=O)N(CC(=O)N(CCCCN)CC(=O)N(CC(=O)N(CC(=O)N(CCCCN)CC(=O)N(CC(=O)N(CC(=O)N(CCCCN)CC(=O)N(CC(=O)N(CC(N)=O)Cc1ccccc1)Cc1ccccc1)Cc1ccccc1)Cc1ccccc1)Cc1ccccc1)Cc1ccccc1)Cc1ccccc1)C(=O)CNCCCCN [1achiral-Nspe 2, H-NLys-Nspe-Npm-(NLys-Npm-Npm)3-NH2] (H-[Nlys][Nspe][Nphe][Nlys][Nphe][Nphe][Nlys][Nphe][Nphe][Nlys][Nphe][Nphe]-NH2)", 8.5],
  ["C[C@@H](c1ccccc1)N(CC(N)=O)C(=O)CN(C(=O)CN(CCCCN)C(=O)CN(Cc1ccccc1)C(=O)CN(Cc1ccccc1)C(=O)CN(CCCCN)C(=O)CN(C(=O)CN(C(=O)CN(CCCCN)C(=O)CN(Cc1ccccc1)C(=O)CN(Cc1ccccc1)C(=O)CNCCCCN)[C@@H](C)c1ccccc1)[C@@H](C)c1ccccc1)[C@@H](C)c1ccccc1 [1-Npm2,3,8,9, H-(NLys-Npm-Npm-NLys-Nspe-Nspe)2-NH2]", 10.5]
]}

Let's switch to this compound now.
Fill blank: measured CC50 of the compound NCCCCNCC(=O)N(CC(=O)N(CC(=O)N(CCCCN)CC(=O)N(CC(=O)N(CC(=O)N(CCCCN)CC(=O)N(CC(=O)N(CC(=O)N(CCCCN)CC(=O)N(CC(=O)N(CC(N)=O)Cc1ccccc1)Cc1ccccc1)Cc1ccccc1)Cc1ccccc1)Cc1ccccc1)Cc1ccccc1)Cc1ccccc1)Cc1ccccc1 [Peptoid 1achiral, H-(NLys-Npm-Npm)4-NH2] (H-[Nlys][Nphe][Nphe][Nlys][Nphe][Nphe][Nlys][Nphe][Nphe][Nlys][Nphe][Nphe]-NH2) is ____.
10.5
